- subject of test: T1, human C1s deletion mutant 2 (NHC) (human, UniProt P09871 16-437)
- T1 construct: C-terminal 6xHis tag; also called HuC1s(NHC); huC1sNHC
- T1 sequence: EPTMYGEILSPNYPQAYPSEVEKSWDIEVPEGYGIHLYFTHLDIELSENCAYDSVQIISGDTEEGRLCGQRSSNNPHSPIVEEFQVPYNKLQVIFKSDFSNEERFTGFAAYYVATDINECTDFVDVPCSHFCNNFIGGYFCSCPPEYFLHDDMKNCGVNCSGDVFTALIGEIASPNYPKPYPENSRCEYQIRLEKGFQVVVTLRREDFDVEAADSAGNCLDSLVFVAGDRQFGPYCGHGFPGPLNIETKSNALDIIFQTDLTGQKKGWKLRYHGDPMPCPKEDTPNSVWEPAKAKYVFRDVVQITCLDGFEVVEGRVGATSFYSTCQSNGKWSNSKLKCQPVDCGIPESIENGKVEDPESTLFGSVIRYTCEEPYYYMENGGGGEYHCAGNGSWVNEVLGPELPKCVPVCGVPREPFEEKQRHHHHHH
- test method notes: ELISA, plate coated with 200 ng/well HuC1s(NHC), OD450nm
EC50 reference

binder	units of measure	EC50
Anti-C1s antibody hz2-8(H1L2) (antibody, V domains shown, Humanized, human IgG1 / kappa) VH: QVQLVQSGAEVKKPGASVKVSCKASGFNIKEYYMHWVRQAPEQGLEWMGWIDPENGDTIYAQKFQGRVTITADTSTNTAYMELSSLRSEDTAVYYCARSRLFFAYWGQGTLVTVSS VL: DIQMTQSPKSLSASVGDRVTITCRASQDVRTALDWYQQKPGQSPKLLIYSASYRYSGVPSRFSGSGSGTDFTLTISSLQPEDFATYYCQQQYTTPYTFGQGTKLEIKR	ng/mL	3
Anti-C1s antibody hz2-7(H1L2) (antibody, V domains shown, Humanized, human IgG1 / kappa; also called hz2-7(1L2)) VH: EVQLLESGGGLVQPGGSLRLSCAASGFTFSNYFMNWVRQAPGKGLEWVSEIRLKFTNYATHYADSVKGRFTISRDDSKSTLYLQMNSLRAEDTAVYYCTRDYGSRNGYFDYWGQGTLVTVSS VL: DIVMTQTPLSLPVTPGEPASISCRSSKSLLHSNGNTFLYWFLQKPGQSPQLLIYRMSNLASGVPDRFSGSGSGTDFTLKISRVEAEDVGVYYCMQHLEYPYTFGGGTKLEIKR	ng/mL	6
Anti-C1s antibody 2-7 (antibody, human IgG1, kappa, V domains shown, the HC/LC entries may hold it too; also called clone 2-7) VH: EVKLEESGGGLVPPGGSMKLSCVASGFTFSNYFMNWVRQSPEKGLEWVAEIRLKFTNYATHYAESVEGRFTISRDDSKSSVYLQMNNLRAEDTGIYYCTRDYGSRNGYFDYWGQGTTLTVSS VL: DIVMTQAAPSVPVTPGESVSISCRSSKSLLHSNGNTFLYWFLQRPGQSPQLLIYRMSNLASGVPDRFSGSGSGTAFTLRVSRVEAEDVGIYYCMQHLEYPYTFGGGTKLEIKT	ng/mL	9
Anti-C1s antibody 2-8 (antibody, V domains shown, the HC/LC entries may hold it too; also called clone 2-8) VH: EVQLQQSGAELVRPGALVKLSCKASGFNIKEYYMHWVKQRPEQGLEWIGWIDPENGDTIYDPKFQGKASITADTSSNTAYLQLSSLTSEDTAVYYCARSRLFFAYWGQGTLVTVSA VL: DIVMTQSHKFMSTSVGDRVSFTCKASQDVRTAVDWYQQKPGQSPKLLIYSASYRYTGVPDRFTGTGSGTDFTFTISSVQAEDLAVYFCQQQYTTPYTFGGGTKLEIKT	ng/mL	12

Data origin: patent US20230051715A1
